# Tested on: WT Max(13-93) synthetic (M65Nle)
# ASSAY PROTOCOL: PBM 8-mer E-score (E-score (rank enrichment, -0.5 to 0.5)); higher = stronger preferential binding
In all, about 33,000 sequences were measured (“E-score (rank enrichment, -0.5 to 0.5)”: median about -0.0075, highest 2% from about 0.23 on). For the sample, the highest values were picked, then their nearest neighbours and some sequences at random.
OUTCOME MEASURE: PBM 8-mer E-score

Enquiry: So what's the measured PBM 8-mer E-score for this one? ATGTATGC
Return: 0.166

Enquiry: Then what about the sequence GATACTGA ?
Return: -0.0332

Enquiry: Then what about the sequence CCAATGGC ?
Return: -0.126

Enquiry: Then what about the sequence GGTATTTA ?
Return: 0.0645

Enquiry: Then what about the sequence ACCTCTAT ?
Return: -0.0733

Enquiry: Then what about the sequence CTACATTC ?
Return: 0.0193

Enquiry: Then what about the sequence ACGTGAGT ?
Return: 0.327

Enquiry: Then what about the sequence ACGTAAAT ?
Return: 0.0493

Enquiry: Then what about the sequence CAGGCCCC ?
Return: -0.0835

Enquiry: Then what about the sequence CTAGGTAA ?
Return: -0.0715

Enquiry: Then what about the sequence GACCCCGC ?
Return: -0.0133

Enquiry: Then what about the sequence CAAATCCA ?
Return: 0.0485

Enquiry: Then what about the sequence CCTAAGGA ?
Return: 0.089

Enquiry: Then what about the sequence CAGCGAGA ?
Return: -0.174

Enquiry: Then what about the sequence ACGTGACG ?
Return: 0.321

Enquiry: Then what about the sequence ACTCGGTG ?
Return: -0.111

Enquiry: Then what about the sequence GCTGGCCA ?
Return: -0.0533

Enquiry: Then what about the sequence ATGCAACG ?
Return: 0.0584

Enquiry: Then what about the sequence AGGGCTAT ?
Return: -0.0385

Enquiry: Then what about the sequence TAAGTTGA ?
Return: 0.0328

Enquiry: Then what about the sequence AGAGTGAA ?
Return: -0.133

Enquiry: Then what about the sequence CAAGTATA ?
Return: 0.0775

Enquiry: Then what about the sequence ATGATAAG ?
Return: 0.17

Enquiry: Then what about the sequence AGGTAAGA ?
Return: -0.0352

Enquiry: Then what about the sequence AAAACGGC ?
Return: 0.251

Enquiry: Then what about the sequence AATACCAG ?
Return: -0.0097

Enquiry: Then what about the sequence AGATGGAC ?
Return: -0.0911

Enquiry: Then what about the sequence GAGAGCTA ?
Return: 0.1

Enquiry: Then what about the sequence ACGTAAAA ?
Return: 0.0973

Enquiry: Then what about the sequence AACGTGAC ?
Return: 0.205

Enquiry: Then what about the sequence AAAGATAG ?
Return: 0.0319

Enquiry: Then what about the sequence ACAATTGC ?
Return: 0.129

Enquiry: Then what about the sequence CACGTGAG ?
Return: 0.404

Enquiry: Then what about the sequence AAGAGATC ?
Return: -0.149

Enquiry: Then what about the sequence CCGTGACA ?
Return: 0.00228

Enquiry: Then what about the sequence TGAGATCA ?
Return: -0.0342

Enquiry: Then what about the sequence AATACCAC ?
Return: 0.232

Enquiry: Then what about the sequence AGGCGTCC ?
Return: -0.0473

Enquiry: Then what about the sequence CCGTGACC ?
Return: -0.23

Enquiry: Then what about the sequence CTGATTAA ?
Return: 0.192

Enquiry: Then what about the sequence CCGTTTCG ?
Return: -0.0232

Enquiry: Then what about the sequence CACCTGAA ?
Return: 0.166

Enquiry: Then what about the sequence CGGCCAGA ?
Return: -0.212

Enquiry: Then what about the sequence CCCGTGAG ?
Return: -0.0893

Enquiry: Then what about the sequence GGAAAGCA ?
Return: -0.0514

Enquiry: Then what about the sequence ATGCAACC ?
Return: 0.244

Enquiry: Then what about the sequence GAAACGGC ?
Return: 0.0668

Enquiry: Then what about the sequence GCTGCGAC ?
Return: -0.219

Enquiry: Then what about the sequence ACTGATGC ?
Return: -0.0431

Enquiry: Then what about the sequence CACTTAGG ?
Return: -0.0583

Enquiry: Then what about the sequence GTGATGTA ?
Return: 0.239

Enquiry: Then what about the sequence ACGCGGAC ?
Return: 0.112

Enquiry: Then what about the sequence AGGAAAAT ?
Return: 0.102

Enquiry: Then what about the sequence GGCCTTTA ?
Return: 0.0556

Enquiry: Then what about the sequence CTTACAAC ?
Return: -0.0407

Enquiry: Then what about the sequence GTATCGAA ?
Return: -0.0312

Enquiry: Then what about the sequence CAAAACCA ?
Return: 0.0992

Enquiry: Then what about the sequence TACGTGAA ?
Return: 0.0446

Enquiry: Then what about the sequence ACGTGAGG ?
Return: 0.16

Enquiry: Then what about the sequence TCGTGACA ?
Return: 0.0356

Enquiry: Then what about the sequence TGCCGCAA ?
Return: 0.106

Enquiry: Then what about the sequence GTGATTTA ?
Return: 0.27

Enquiry: Then what about the sequence CCAGTGAA ?
Return: -0.0413

Enquiry: Then what about the sequence CAAGATAC ?
Return: 0.146

Enquiry: Then what about the sequence CGCCTTAG ?
Return: -0.0361

Enquiry: Then what about the sequence CGCGTGAG ?
Return: 0.0752

Enquiry: Then what about the sequence CCGGCCCA ?
Return: -0.197

====

Exercise: for every item that follows, state its recorded PBM 8-mer E-score.
# System: WT Max(13-93) synthetic (M65Nle)
# ASSAY PROTOCOL: PBM 8-mer E-score (E-score (rank enrichment, -0.5 to 0.5)); higher = stronger preferential binding
The full ranking holds about 33,000 sequences; the median of “E-score (rank enrichment, -0.5 to 0.5)” is about -0.0075, and the highest 2% start at about 0.23. This excerpt belongs to a sample that is enriched for the highest values.

Enquiry: So what's the measured PBM 8-mer E-score for this one? CACATAAA
Return: 0.106

Enquiry: Then what about the sequence CAAGGCTA ?
Return: -0.0688

Enquiry: Then what about the sequence CCATGCTC ?
Return: 0.084

Enquiry: Then what about the sequence CTATATCC ?
Return: 0.135

Enquiry: Then what about the sequence GTCATAAC ?
Return: 0.0805

Enquiry: Then what about the sequence ATACAAAT ?
Return: 0.249

Enquiry: Then what about the sequence CACATACA ?
Return: 0.00143

Enquiry: Then what about the sequence ACGTGATC ?
Return: 0.365

Enquiry: Then what about the sequence ACGCATGC ?
Return: 0.281

Enquiry: Then what about the sequence GACATACA ?
Return: 0.162

Enquiry: Then what about the sequence CACAACAA ?
Return: 0.17

Enquiry: Then what about the sequence CCGCATGC ?
Return: 0.2

Enquiry: Then what about the sequence ATGTGTTC ?
Return: 0.106

Enquiry: Then what about the sequence CTAAGGAG ?
Return: -0.143

Enquiry: Then what about the sequence CTACATAA ?
Return: 0.0655

Enquiry: Then what about the sequence TTATATAA ?
Return: 0.256

Enquiry: Then what about the sequence GGGGGTCA ?
Return: -0.172

Enquiry: Then what about the sequence CATGGAAC ?
Return: 0.0484

Enquiry: Then what about the sequence GCATCAAA ?
Return: 0.0826

Enquiry: Then what about the sequence ACATGTCG ?
Return: 0.14

Enquiry: Then what about the sequence CCGTGATA ?
Return: -0.0612

Enquiry: Then what about the sequence AAGAGTAA ?
Return: 0.0887

Enquiry: Then what about the sequence CCAGCATA ?
Return: 0.0104

Enquiry: Then what about the sequence AAACATAT ?
Return: 0.144

Enquiry: Then what about the sequence AGACGTAG ?
Return: 0.0572

Enquiry: Then what about the sequence CTGTGATA ?
Return: -0.0471

Enquiry: Then what about the sequence CGATATAG ?
Return: -0.0681

Enquiry: Then what about the sequence CCGTGATC ?
Return: -0.0695

Enquiry: Then what about the sequence ACTAACCT ?
Return: 0.0869

Enquiry: Then what about the sequence CTTTATAA ?
Return: 0.127

Enquiry: Then what about the sequence TAGGCACA ?
Return: 0.0603

Enquiry: Then what about the sequence ACACATAA ?
Return: 0.214

Enquiry: Then what about the sequence ATACAAAA ?
Return: 0.265

Enquiry: Then what about the sequence GACCCGAA ?
Return: -0.196

Enquiry: Then what about the sequence ACGCATGG ?
Return: 0.243

Enquiry: Then what about the sequence CGGCAGTA ?
Return: -0.142

Enquiry: Then what about the sequence AGTAGCGA ?
Return: -0.0978

Enquiry: Then what about the sequence AAACATAC ?
Return: 0.233

Enquiry: Then what about the sequence AGATGTGG ?
Return: 0.0747

Enquiry: Then what about the sequence ACGCATAG ?
Return: 0.0507

Enquiry: Then what about the sequence ATATGTTG ?
Return: 0.0792

Enquiry: Then what about the sequence ATACTATA ?
Return: 0.22

Enquiry: Then what about the sequence ACGTGATA ?
Return: 0.373

Enquiry: Then what about the sequence GAATGTGA ?
Return: 0.0246

Enquiry: Then what about the sequence ACTGTGTC ?
Return: -0.00876

Enquiry: Then what about the sequence AACATACG ?
Return: 0.246

Enquiry: Then what about the sequence ACGGGCTG ?
Return: -0.16

Enquiry: Then what about the sequence ACATGCTC ?
Return: 0.272

Enquiry: Then what about the sequence ATACCAAA ?
Return: 0.124

Enquiry: Then what about the sequence AATGTATG ?
Return: 0.255

Enquiry: Then what about the sequence ATACAAAG ?
Return: 0.0198

Enquiry: Then what about the sequence AAACATAA ?
Return: 0.244

Enquiry: Then what about the sequence AAACATAG ?
Return: 0.21

Enquiry: Then what about the sequence CTTGCAGC ?
Return: -0.155

Enquiry: Then what about the sequence ACGCATGA ?
Return: 0.127

Enquiry: Then what about the sequence GACAACAC ?
Return: 0.025

Enquiry: Then what about the sequence CAACATAC ?
Return: 0.112

Enquiry: Then what about the sequence ATTTATAA ?
Return: 0.241

Enquiry: Then what about the sequence ACGGGGAG ?
Return: 0.0661

Enquiry: Then what about the sequence CAACATAA ?
Return: 0.167

Enquiry: Then what about the sequence AATGTGTG ?
Return: 0.267

Enquiry: Then what about the sequence GCATGTCA ?
Return: 0.208

Enquiry: Then what about the sequence ACGTGATG ?
Return: 0.281

Enquiry: Then what about the sequence CAGGCGAC ?
Return: -0.124

Enquiry: Then what about the sequence AATGTAAT ?
Return: 0.12

Enquiry: Then what about the sequence AAGTGATG ?
Return: 0.0833

Enquiry: Then what about the sequence AATGTGTA ?
Return: 0.167

Enquiry: Then what about the sequence AAGAAATG ?
Return: 0.101

Enquiry: Then what about the sequence AATGTATC ?
Return: 0.168

Enquiry: Then what about the sequence AATGTGTC ?
Return: 0.0393

Enquiry: Then what about the sequence AACATAAA ?
Return: 0.225

Enquiry: Then what about the sequence AGTTTGTA ?
Return: 0.074

Enquiry: Then what about the sequence GTCGACAA ?
Return: 0.0204

Enquiry: Then what about the sequence GATGACAA ?
Return: 0.147

Enquiry: Then what about the sequence ACAAAGAT ?
Return: 0.0862

Enquiry: Then what about the sequence ACGGCCAT ?
Return: -0.0405
